measurement context: in n-butyl acetate, 303.15 K
endpoint: solubility (mole fraction)

1. O=C(O)c1cccc(O)c1
0.0526

----------
measurement context: in ethyl acetate, 298.15 K
endpoint: solubility (mole fraction)

1. O=C(O)c1cccc(O)c1
0.0534

----------
measurement context: in methanol, 288.15 K
endpoint: solubility (mole fraction)

1. O=C(O)c1cccc(O)c1
0.0895

----------
measurement context: in n-propanol, 293.15 K
endpoint: solubility (mole fraction)

1. O=C(O)c1cccc(O)c1
0.0975

----------
measurement context: in methanol, 283.15 K
endpoint: solubility (mole fraction)

1) O=C(O)c1cccc(O)c1
0.0856

----------
measurement context: in n-propanol, 318.15 K
endpoint: solubility (mole fraction)

1. O=C(O)c1cccc(O)c1
0.128

----------
measurement context: in ethanol, 308.15 K
endpoint: solubility (mole fraction)

1) O=C(O)c1cccc(O)c1
0.121

----------
measurement context: in n-butanol, 313.15 K
endpoint: solubility (mole fraction)

1) O=C(O)c1cccc(O)c1
0.115

----------
measurement context: in isopropyl acetate, 323.15 K
endpoint: solubility (mole fraction)

1. O=C(O)c1cccc(O)c1
0.0618

----------
measurement context: in n-pentanol, 303.15 K
endpoint: solubility (mole fraction)

1) O=C(O)c1cccc(O)c1
0.101

----------
measurement context: in acetonitrile, 293.15 K
endpoint: solubility (mole fraction)

1. O=C(O)c1cccc(O)c1
0.0116

----------
measurement context: in methyl acetate, 318.15 K
endpoint: solubility (mole fraction)

1. O=C(O)c1cccc(O)c1
0.0764

----------
measurement context: in n-pentanol, 318.15 K
endpoint: solubility (mole fraction)

1. O=C(O)c1cccc(O)c1
0.118

----------
measurement context: in methanol, 313.15 K
endpoint: solubility (mole fraction)

1. O=C(O)c1cccc(O)c1
0.117

----------
measurement context: in methyl acetate, 288.15 K
endpoint: solubility (mole fraction)

1) O=C(O)c1cccc(O)c1
0.048

----------
measurement context: in n-propyl acetate, 318.15 K
endpoint: solubility (mole fraction)

1. O=C(O)c1cccc(O)c1
0.0711

----------
measurement context: in isopropanol, 313.15 K
endpoint: solubility (mole fraction)

1. O=C(O)c1cccc(O)c1
0.14

----------
measurement context: in ethanol, 303.15 K
endpoint: solubility (mole fraction)

1) O=C(O)c1cccc(O)c1
0.116

----------
measurement context: in n-butyl acetate, 318.15 K
endpoint: solubility (mole fraction)

1. O=C(O)c1cccc(O)c1
0.0661

----------
measurement context: in acetonitrile, 298.15 K
endpoint: solubility (mole fraction)

1. O=C(O)c1cccc(O)c1
0.0132

----------
measurement context: in ethanol, 278.15 K
endpoint: solubility (mole fraction)

1) O=C(O)c1cccc(O)c1
0.0936

----------
measurement context: in acetonitrile, 303.15 K
endpoint: solubility (mole fraction)

1. O=C(O)c1cccc(O)c1
0.0155

----------
measurement context: in n-butanol, 293.15 K
endpoint: solubility (mole fraction)

1. O=C(O)c1cccc(O)c1
0.0919

----------
measurement context: in methyl acetate, 278.15 K
endpoint: solubility (mole fraction)

1. O=C(O)c1cccc(O)c1
0.0388

----------
measurement context: in n-propyl acetate, 278.15 K
endpoint: solubility (mole fraction)

1) O=C(O)c1cccc(O)c1
0.0379

----------
measurement context: in n-butyl acetate, 308.15 K
endpoint: solubility (mole fraction)

1. O=C(O)c1cccc(O)c1
0.0564

----------
measurement context: in isopropyl acetate, 298.15 K
endpoint: solubility (mole fraction)

1. O=C(O)c1cccc(O)c1
0.043

----------
measurement context: in acetone, 283.15 K
endpoint: solubility (mole fraction)

1) O=C(O)c1cccc(O)c1
0.107

----------
measurement context: in n-butanol, 278.15 K
endpoint: solubility (mole fraction)

1) O=C(O)c1cccc(O)c1
0.0772

----------
measurement context: in ethylene glycol, 293.15 K
endpoint: solubility (mole fraction)

1. O=C(O)c1cccc(O)c1
0.0883

----------
measurement context: in n-propyl acetate, 298.15 K
endpoint: solubility (mole fraction)

1) O=C(O)c1cccc(O)c1
0.0513

----------
measurement context: in isopropyl acetate, 288.15 K
endpoint: solubility (mole fraction)

1. O=C(O)c1cccc(O)c1
0.0365

----------
measurement context: in acetone, 313.15 K
endpoint: solubility (mole fraction)

1) O=C(O)c1cccc(O)c1
0.142

----------
measurement context: in ethylene glycol, 313.15 K
endpoint: solubility (mole fraction)

1. O=C(O)c1cccc(O)c1
0.116

----------
measurement context: in n-pentanol, 293.15 K
endpoint: solubility (mole fraction)

1. O=C(O)c1cccc(O)c1
0.0902

----------
measurement context: in isopropyl acetate, 303.15 K
endpoint: solubility (mole fraction)

1. O=C(O)c1cccc(O)c1
0.0465

----------
measurement context: in isopropanol, 283.15 K
endpoint: solubility (mole fraction)

1) O=C(O)c1cccc(O)c1
0.104

----------
measurement context: in n-butanol, 323.15 K
endpoint: solubility (mole fraction)

1. O=C(O)c1cccc(O)c1
0.125

----------
measurement context: in ethylene glycol, 283.15 K
endpoint: solubility (mole fraction)

1) O=C(O)c1cccc(O)c1
0.0829

----------
measurement context: in isopropanol, 303.15 K
endpoint: solubility (mole fraction)

1) O=C(O)c1cccc(O)c1
0.127

----------
measurement context: in methyl acetate, 293.15 K
endpoint: solubility (mole fraction)

1. O=C(O)c1cccc(O)c1
0.0502

----------
measurement context: in methanol, 293.15 K
endpoint: solubility (mole fraction)

1. O=C(O)c1cccc(O)c1
0.0943

----------
measurement context: in ethyl acetate, 313.15 K
endpoint: solubility (mole fraction)

1) O=C(O)c1cccc(O)c1
0.0682

----------
measurement context: in n-propanol, 288.15 K
endpoint: solubility (mole fraction)

1) O=C(O)c1cccc(O)c1
0.0949

----------
measurement context: in n-pentanol, 298.15 K
endpoint: solubility (mole fraction)

1. O=C(O)c1cccc(O)c1
0.0951

----------
measurement context: in isopropyl acetate, 293.15 K
endpoint: solubility (mole fraction)

1. O=C(O)c1cccc(O)c1
0.0383

----------
measurement context: in isopropyl acetate, 283.15 K
endpoint: solubility (mole fraction)

1) O=C(O)c1cccc(O)c1
0.0337

----------
measurement context: in ethyl acetate, 293.15 K
endpoint: solubility (mole fraction)

1) O=C(O)c1cccc(O)c1
0.0486

----------
measurement context: in isopropanol, 288.15 K
endpoint: solubility (mole fraction)

1) O=C(O)c1cccc(O)c1
0.109

----------
measurement context: in n-pentanol, 323.15 K
endpoint: solubility (mole fraction)

1) O=C(O)c1cccc(O)c1
0.125

----------
measurement context: in acetonitrile, 278.15 K
endpoint: solubility (mole fraction)

1) O=C(O)c1cccc(O)c1
0.00646

----------
measurement context: in n-propyl acetate, 293.15 K
endpoint: solubility (mole fraction)

1) O=C(O)c1cccc(O)c1
0.047

----------
measurement context: in n-butanol, 288.15 K
endpoint: solubility (mole fraction)

1. O=C(O)c1cccc(O)c1
0.0857

----------
measurement context: in n-butanol, 318.15 K
endpoint: solubility (mole fraction)

1) O=C(O)c1cccc(O)c1
0.12

----------
measurement context: in ethylene glycol, 308.15 K
endpoint: solubility (mole fraction)

1. O=C(O)c1cccc(O)c1
0.109

----------
measurement context: in acetone, 318.15 K
endpoint: solubility (mole fraction)

1) O=C(O)c1cccc(O)c1
0.151

----------
measurement context: in ethanol, 298.15 K
endpoint: solubility (mole fraction)

1) O=C(O)c1cccc(O)c1
0.112

----------
measurement context: in ethyl acetate, 318.15 K
endpoint: solubility (mole fraction)

1. O=C(O)c1cccc(O)c1
0.0742

----------
measurement context: in n-butyl acetate, 293.15 K
endpoint: solubility (mole fraction)

1. O=C(O)c1cccc(O)c1
0.0459

----------
measurement context: in methanol, 318.15 K
endpoint: solubility (mole fraction)

1) O=C(O)c1cccc(O)c1
0.124

----------
measurement context: in n-pentanol, 308.15 K
endpoint: solubility (mole fraction)

1. O=C(O)c1cccc(O)c1
0.106

----------
measurement context: in isopropanol, 323.15 K
endpoint: solubility (mole fraction)

1. O=C(O)c1cccc(O)c1
0.155

----------
measurement context: in ethanol, 323.15 K
endpoint: solubility (mole fraction)

1. O=C(O)c1cccc(O)c1
0.147

----------
measurement context: in isopropyl acetate, 318.15 K
endpoint: solubility (mole fraction)

1) O=C(O)c1cccc(O)c1
0.059

----------
measurement context: in n-propanol, 283.15 K
endpoint: solubility (mole fraction)

1. O=C(O)c1cccc(O)c1
0.0878

----------
measurement context: in isopropyl acetate, 308.15 K
endpoint: solubility (mole fraction)

1) O=C(O)c1cccc(O)c1
0.0507

----------
measurement context: in n-propanol, 313.15 K
endpoint: solubility (mole fraction)

1. O=C(O)c1cccc(O)c1
0.121

----------
measurement context: in n-butyl acetate, 278.15 K
endpoint: solubility (mole fraction)

1. O=C(O)c1cccc(O)c1
0.0361

----------
measurement context: in isopropanol, 308.15 K
endpoint: solubility (mole fraction)

1. O=C(O)c1cccc(O)c1
0.134

Data provenance is BigSolDB 2.1.
